System: interferon (α)
method summary: Interferon (α) induction in human cells (in vitro human blood cell system, interferon by bioassay)
Assay type: cell-based
reported conditions: Dose Concentration 10.0 μg/mL; human PBM's, 48 hours

compound	Interferon (α) Induction in Human Cells
CCCc1nc2c(N)nc3ccc(Br)cc3c2s1 [Example 44]	+
CC(C)(Cc1nc2c(N)nc3ccccc3c2s1)OC(N)=O [Example 26]	+
Nc1nc2ccccc2c2sc(N3CCCC3)nc12 [Example 54]	−

----------
System: interferon (α)
method summary: Interferon (α) induction in human cells (in vitro human blood cell system, interferon by bioassay)
Type: cell-based
reported conditions: Dose Concentration 0.50 μg/mL; human PBM's, 48 hours

compound	system	Interferon (α) Induction in Human Cells
Nc1nc2ccccc2c2sc(/C=C/c3ccccc3)nc12	interferon (α)	−
COCc1nc2c(N)nc3ccccc3c2s1	interferon (α)	−
CCCc1nc2c(N)nc3ccccc3c2o1 [Example 43, 2-Propyloxazolo[4,5-c]quinolin-4-amine]	interferon (α)	+
CCCc1nc2c(N)nc3ccc(Br)cc3c2s1	interferon (α)	−
Nc1nc2ccccc2c2sc(CCc3ccccc3)nc12	interferon (α)	−
